- Tested on: SF-268
- assayText: NCI tumour cell line growth inhibition, 48 h
The source made the active and inactive calls. No stated cut-off is given here; in the data, active = GI50 up to about 1.1 µM and inactive = higher.
measuredQuantity: GI50

[[record]]
molecule = "O=C1NCCS(=O)(=O)N[C@@H](CC2=CC=CCC2)C(=O)N2CCCC12 (some centres undefined)"
reportedmeasurement = "> 100 µM (inactive)"

[[record]]
molecule = "Cc1cc(S(=O)(=O)Nc2nc3ccccc3n2-c2ccccc2)c(S)cc1Cl"
reportedmeasurement = "> 100 µM (inactive)"

[[record]]
molecule = "Oc1ccccc1/C=N/c1ccc(Oc2ccc(Cl)cc2)c(Cl)c1"
reportedmeasurement = "17.9 µM (inactive)"

[[record]]
molecule = "CCn1ncc(N=O)c1N"
reportedmeasurement = "> 100 µM (inactive)"


The measurements presented in this section are drawn from ChEMBL document CHEMBL1201862.
